- system: T1, RPtag(small) Nd2, Cd4 (Thermoanaerobacter tengcongensis)
- T1 peptide: RhodamineB-KIPNFIPAELKLITK
- assayInfo: fluorescence anisotropy; 2 nM rhodamine Nd2Cd4, unlabeled RPtag large variant titrated; bar of Ka = 1/Kd, right axis
No end group written: not given here. *: point of attachment. RhodamineB = CCN(CC)c1ccc2c(-c3ccccc3C(=O)*)c3ccc(=[N+](CC)CC)cc-3oc2c1
measurementType: binding result

>>> datavalue("k129a (designed binder, also called RPtag(large) K129A) single chain: MGSSCHHHHHHSQDPNSSSMKEGKTIGLVISTLNNPFFVTLKNGAEEKAKELGYKIIVEDSQNDSSKELSNVEDLIQQKVDVLLINPVDSDAVVTAIKEANSKNIPVITIDRSANGGDVVSHIASDNVAGGEMAAEFIAKALKGKGNVVELEGIPGASAARDRGKGFDEAIAKYPDIKIVAKQAADFDRSKGLSVMENILQAQPKIDAVFAQNDEMALGAIKAIEAANRQGIIVVGFDGTEDALKAIKEGKMAATIAQQPALMGSLGVEMADKYLK")
"binds"
>>> datavalue("k129f (designed binder, also called RPtag(large) K129F) single chain: MGSSCHHHHHHSQDPNSSSMKEGKTIGLVISTLNNPFFVTLKNGAEEKAKELGYKIIVEDSQNDSSKELSNVEDLIQQKVDVLLINPVDSDAVVTAIKEANSKNIPVITIDRSANGGDVVSHIASDNVFGGEMAAEFIAKALKGKGNVVELEGIPGASAARDRGKGFDEAIAKYPDIKIVAKQAADFDRSKGLSVMENILQAQPKIDAVFAQNDEMALGAIKAIEAANRQGIIVVGFDGTEDALKAIKEGKMAATIAQQPALMGSLGVEMADKYLK")
"binds"
